Sourced from patent US20240424112A1

For each entry below, report its % Mean Degradation of BRD4 value.
# system-under-test: BRD4 long isoform (Homo sapiens, UniProt O60885)
# Construct: endogenous in cells; host or cells: MDA-MB-468
# protocol-details: BRD4 degradation assay (Western blot, MDA-MB-468 cells), long isoform
# Format: cell-based
# condition-context: 24 h, 0.1 μM, MDA-MB-468, n = 2
Numbers only, in %.

Illustrative cases are given below, each with its answer.
[
  {
    "compound": "Cc1sc2c(c1C)C(c1ccc(Cl)cc1)=N[C@@H](CC(=O)NCC(=O)NCCOCC(=O)N1CC[C@H](Oc3ccc(Cl)c4c3[C@@H](CN3CC5(CC5)CC3=O)N(C(=O)[C@@H]3CCCC[C@]3(C)C(=O)O)CC4)C1)c1nnc(C)n1-2",
    "% Mean Degradation of BRD4 / %": 9
  },
  {
    "compound": "Cc1sc2c(c1C)C(c1ccc(Cl)cc1)=N[C@@H](CC(=O)NCCOCCNC(=O)[C@@]1(C)CCCC[C@H]1C(=O)N1CCc3c(Cl)ccc(OCc4nnn(C)c4C)c3[C@H]1CN1CC3(CC3)CC1=O)c1nnc(C)n1-2 [Comparative Example 2, reference compound]",
    "% Mean Degradation of BRD4 / %": "−33"
  },
  {
    "compound": "Cc1sc2c(c1C)C(c1ccc(Cl)cc1)=N[C@@H](CC(=O)NCC(=O)NCCOCc1c(COc3ccc(Cl)c4c3[C@@H](CN3CC5(CC5)CC3=O)N(C(=O)[C@@H]3CCCC[C@]3(C)C(=O)O)CC4)nnn1C)c1nnc(C)n1-2",
    "% Mean Degradation of BRD4 / %": 23
  },
  {
    "compound": "Cc1sc2c(c1C)C(c1ccc(Cl)cc1)=N[C@@H](CC(=O)NCC(=O)NCCNC(=O)[C@@]1(C)CCCC[C@H]1C(=O)N1CCc3c(Cl)ccc(OCc4nnn(C)c4C)c3[C@H]1CN1CC3(CC3)CC1=O)c1nnc(C)n1-2 [Comparative Example 1, reference compound]",
    "% Mean Degradation of BRD4 / %": 11
  }
]

Now consider the entry below.
Lab note: Cc1sc2c(c1C)C(c1ccc(Cl)cc1)=N[C@@H](CC(=O)NCCC(=O)NCCOCc1c(COc3ccc(Cl)c4c3[C@@H](CN3CC5(CC5)CC3=O)N(C(=O)[C@@H]3CCCC[C@]3(C)C(=O)O)CC4)nnn1C)c1nnc(C)n1-2 gave % Mean Degradation of BRD4 of −37
